test system: uninfected 37RC cells; assay: Toxicity to uninfected cells, determined visually by microscopy (TD100)
# note: boundary value 50 µM maps to rule not met; TD100 (dose or concentration at which the compound was 100% toxic to uninfected cells) below it maps to rule met

Compound	Class assignment
C[C@@H](CS[C@H]1CC(=O)C[C@@H]1O[Si](C)(C)C(C)(C)C)C(=O)N1CCCC1C(=O)O (some centres unmarked)	rule not met
CC(C)(C)[Si](C)(C)O[C@H]1CC(=O)C[C@@H]1Sc1ccncc1	rule met
CC(C)(C)[Si](C)(C)OC1C=CC(=O)C1 (centres unmarked) [CTC-8, reference compound]	rule not met
COC(=O)[C@H](CS[C@H]1CC(=O)CC[C@@H]1O[Si](C)(C)C(C)(C)C)NC(=O)OC(C)(C)C	rule met

Task: is_below(TD100 (dose or concentration at which the compound was 100% toxic to uninfected cells), 50 µM) for COC(=O)C(CSC1CC(=O)CC(O[Si](C)(C)C(C)(C)C)C1)NC(=O)OC(C)(C)C (centres unmarked) ?
Output: rule met

Task: Say whether its TD100 (dose or concentration at which the compound was 100% toxic to uninfected cells) is strictly beneath 50 µM. Entry: "CC(C)(C)[Si](C)(C)O[C@H]1CC(=O)C[C@@H]1Sc1ccc([N+](=O)[O-])cc1"
Output: rule met

Task: I wonder whether "CC(C)(C)[Si](C)(C)O[C@H]1CC(=O)C[C@@H]1Sc1ncccn1" has TD100 (dose or concentration at which the compound was 100% toxic to uninfected cells) below 50 µM. Can you tell?
Output: rule met

----------
tested on: Sendai virus; assay: Sendai virus replication in 37RC cells (virus yield by HAU titration); format: cell-based; conditions: Respirovirus muris, 5 HAU/10^5 cells, virus yield at 24 hours after infection, read-out: ID50 (50% inhibitory dose/concentration), Sendai virus yield
Would you mind telling me the reported IC50 of each entry?
Numbers only, in nM.

Worked examples, 3 compounds total:
Compound	Tgt	Unit of measure	IC50
CC(=O)Nc1ccc(S[C@H]2CC(=O)C[C@@H]2O[Si](C)(C)C(C)(C)C)cc1	Sendai virus	nM	1000
CC(=O)N[C@@H](CS[C@H]1CC(=O)C[C@@H]1O[Si](C)(C)C(C)(C)C)C(=O)OC(C)(C)C	Sendai virus	nM	4000
COC(=O)CS[C@H]1CC(=O)C[C@@H]1O[Si](C)(C)C(C)(C)C	Sendai virus	nM	4000

Please report IC50 for every entry that follows.
1. CC(C)(C)[Si](C)(C)O[C@H]1CC(=O)C[C@@H]1Sc1ncccn1
2. CC(C)(C)OC(=O)N[C@@H](CS[C@H]1CC(=O)C[C@@H]1O[Si](C)(C)C(C)(C)C)C(=O)OC(C)(C)C
3. COC(=O)[C@H](CSC1CC(=O)C[C@@H]1O[Si](C)(C)C(C)(C)C)NC(=O)OC(C)(C)C (some centres unmarked)
4. CC(S[C@H]1CC(=O)C[C@@H]1O[Si](C)(C)C(C)(C)C)C(=O)NCC(=O)O (some centres unmarked)
5. CC(C)(C)[Si](C)(C)O[C@H]1CC(=O)C[C@@H]1Sc1ccncc1

Output:
1. 1000
2. 1600
3. 4000
4. 1000
5. 200

----------
tested on: NF-κB; assay: NF-κB-dependent luciferase reporter gene assay, HeLa κB-transformed cells, TPA stimulated; assay type: cell-based; conditions: 8 h treatment, TPA 25 ng/ml 2 h after exposure, read-out: NF-κB, IC50 (concentration at which the compound halved the NF-κB activity)
Observation type: pIC50
Numbers only, as −log10 of the molar value.

Task: Complete the entry with pIC50 for CC(C)(C)C(=O)O[C@H]1[C@H](Sc2ccc3ccccc3c2)CC(=O)C1(C)C (stereo in doubt) [CTM-192]
Output: 4.55

----------
assay: Alamar Blue cytotoxicity assay; assay type: cell-based; conditions: human
Observation type: CC50 at 8 h

Compound	CC50 at 8 h
COC(=O)CS[C@H]1CC(=O)C[C@@H]1O[Si](C)(C)C(C)(C)C	260 µM
CC(C)(C)OC(=O)N[C@@H](CS[C@H]1CC(=O)C[C@@H]1O[Si](C)(C)C(C)(C)C)C(=O)O	> 800 µM
CC(=O)NCCS[C@H]1CC(=O)C[C@@H]1O[Si](C)(C)C(C)(C)C	> 800 µM
CC(=O)N[C@@H](CS[C@H]1CC(=O)C[C@@H]1O[Si](C)(C)C(C)(C)C)C(=O)OC(C)(C)C	536 µM
CCOC(=O)[C@H](CS[C@H]1CC(=O)C[C@@H]1O[Si](C)(C)C(C)(C)C)NC(C)=O	> 800 µM
CC(S[C@H]1CC(=O)C[C@@H]1O[Si](C)(C)C(C)(C)C)C(=O)NCC(=O)O (some centres unmarked)	> 800 µM

Lab note: each compound below needs its CC50 at 8 h filled in.
1. CC(C)(C)[Si](C)(C)O[C@H]1CC(=O)C[C@@H]1Sc1ccc(F)cc1
2. CC(=O)Nc1ccc(S[C@H]2CC(=O)C[C@@H]2O[Si](C)(C)C(C)(C)C)cc1

Output:
1. > 800 µM
2. 181 µM

----------
Assignment: determine reported pIC50 for the given molecules.
test system: Sendai virus; experiment: Sendai virus replication in 37RC cells (virus yield by HAU titration); assay type: cell-based; conditions: Respirovirus muris, 5 HAU/10^5 cells, virus yield at 24 hours after infection, read-out: ID50 (50% inhibitory dose/concentration), Sendai virus yield
Numbers only, as −log10 of the molar value.

Consider the following illustrative entries.
Molecule	Tgt	pIC50
O=C1C=CCC1 [CTC-1, cyclopent-2-en-1-one, reference compound]	Sendai virus	4.05
C[C@@H](CS[C@H]1CC(=O)C[C@@H]1O[Si](C)(C)C(C)(C)C)C(=O)N1CCCC1C(=O)O (some centres unmarked)	Sendai virus	5.30
CC(C)(C)OC(=O)N[C@@H](CS[C@H]1CC(=O)C[C@@H]1O[Si](C)(C)C(C)(C)C)C(=O)O	Sendai virus	6.10
Cc1cc(C)n(CCS[C@H]2CC(=O)C[C@@H]2O[Si](C)(C)C(C)(C)C)n1	Sendai virus	5.40
CC(C)(C)[Si](C)(C)OC1C=CC(=O)C1 (centres unmarked) [CTC-8, reference compound]	Sendai virus	6.30

For every item below, please supply its pIC50.
1. CC(C)(C)[Si](C)(C)O[C@H]1CC(=O)C[C@@H]1Sc1ccc(F)cc1
2. CC(C)(C)[Si](C)(C)O[C@H]1CC(=O)C[C@@H]1Sc1ccccn1
3. COc1ccc(S[C@H]2CC(=O)C[C@@H]2O[Si](C)(C)C(C)(C)C)cc1
4. CC(=O)N[C@@H](CS[C@H]1CC(=O)C[C@@H]1O[Si](C)(C)C(C)(C)C)C(=O)O
5. CC(C)(C)[Si](C)(C)O[C@H]1CC(=O)C[C@@H]1Sc1ccc([N+](=O)[O-])cc1
6. CC(=O)NCCS[C@H]1CC(=O)C[C@@H]1O[Si](C)(C)C(C)(C)C
7. COC(=O)c1ccccc1S[C@H]1CC(=O)C[C@@H]1O[Si](C)(C)C(C)(C)C

Output:
1. 5.40
2. 5.70
3. 5.82
4. 4.30
5. 6.52
6. 5.52
7. 6.00

Could you tell me pIC50 for each of these molecules? They are listed below.
1. CC(C)(C)[Si](C)(C)O[C@H]1CC(=O)C[C@@H]1SCCS(=O)(=O)O
2. CCOC(=O)[C@H](CS[C@H]1CC(=O)C[C@@H]1O[Si](C)(C)C(C)(C)C)NC(=O)OC(C)(C)C
3. COC(=O)CCS[C@H]1CC(=O)C[C@@H]1O[Si](C)(C)C(C)(C)C

Output:
[6.00, 6.00, 5.00]

Could you tell me pIC50 for each of these molecules? They are listed below.
1. CCOC(=O)[C@H](CS[C@H]1CC(=O)C[C@@H]1O[Si](C)(C)C(C)(C)C)NC(C)=O
2. Cc1ccc(S[C@H]2CC(=O)C[C@@H]2O[Si](C)(C)C(C)(C)C)cc1

Output:
5.00
6.00

----------
assay: Alamar Blue cytotoxicity assay; format: cell-based; conditions: human
Lab note - cut at 200 µM for CC50 at 8 h: yes (1) if strictly below, no (0) if not.

Task: Please determine if Cc1ccc(S[C@H]2CC(=O)C[C@@H]2O[Si](C)(C)C(C)(C)C)cc1 [CTM-80] is below 200 µM in terms of CC50 at 8 h.
Output: no (0)

Task: Hello, I'm reviewing records and need to know if CC50 at 8 h of Cc1cc(C)n(CCS[C@H]2CC(=O)C[C@@H]2O[Si](C)(C)C(C)(C)C)n1 [CTM-109] is below 200 µM. Could you check?
Output: no (0)

Task: Problem: For the molecule CC(C)(C)[Si](C)(C)O[C@H]1CC(=O)C[C@@H]1Sc1ccc([N+](=O)[O-])cc1 [CTM-107] , is CC50 at 8 h under 200 µM?
Output: yes (1)

Task: Is 200 µM strictly greater than the molecule's reported CC50 at 8 h? molecule: COC(=O)c1ccccc1S[C@H]1CC(=O)C[C@@H]1O[Si](C)(C)C(C)(C)C [CTM-82]
Output: no (0)

Just for reference, patent US7759399B2 is where these values come from.
